Data provenance: paper PMC4804703

- target: hCB1R C6.47(355)S (Homo sapiens, UniProt P21554, C355S)
- Sequence (P21554 whole entry C355S): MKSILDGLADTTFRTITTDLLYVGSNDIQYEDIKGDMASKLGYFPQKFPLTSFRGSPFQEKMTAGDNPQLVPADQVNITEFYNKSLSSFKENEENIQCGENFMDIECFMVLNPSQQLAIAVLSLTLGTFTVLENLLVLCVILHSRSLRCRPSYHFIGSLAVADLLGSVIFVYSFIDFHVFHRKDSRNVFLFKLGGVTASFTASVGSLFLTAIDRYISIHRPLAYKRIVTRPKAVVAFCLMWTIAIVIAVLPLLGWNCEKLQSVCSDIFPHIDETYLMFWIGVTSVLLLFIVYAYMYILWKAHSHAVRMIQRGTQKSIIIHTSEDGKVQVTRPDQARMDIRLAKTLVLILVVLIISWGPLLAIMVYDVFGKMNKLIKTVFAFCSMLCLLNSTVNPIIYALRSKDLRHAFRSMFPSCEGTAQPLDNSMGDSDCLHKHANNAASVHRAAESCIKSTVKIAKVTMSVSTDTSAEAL
- procedure.text: Competition binding with [^3H]CP55,940, Flp-In-293 membranes
- condition.details: read-out: apparent Ki (95% CI); C6.47(355)S mutant; [^3H]CP55,940 0.75 nM
observation.type: pKi
Numbers only, as −log10 of the molar value.

Please report the measured pKi for O=C(CCC/C=C\C/C=C\C/C=C\C/C=C\CCCCCN=C=S)NC1CC1 [AM3677]
8.66

====

- target: hCB1R C4.47(238)S (Homo sapiens, UniProt P21554, C238S)
- procedure.text: Competition binding with [^3H]CP55,940, Flp-In-293 membranes
- condition.details: read-out: apparent Ki (95% CI); C4.47(238)S mutant; [^3H]CP55,940 0.75 nM
observation.type: pKi
One number for each entry, as −log10 of the molar value.

State pKi on hCB1R C4.47(238)S (Homo sapiens, UniProt P21554, C238S). Entry: O=C(CCC/C=C\C/C=C\C/C=C\C/C=C\CCCCCN=C=S)NC1CC1
8.62
